Data provenance: paper PMC3945819

- systemUnderTest: MDCC-Ser20Cys TM-PaDDAH (fl-TM-PaDDAH) (Pseudomonas aeruginosa, UniProt Q9I4E3, C249S/R40E/R98H/S20C)
- Construct: polyhistidine (cleaved yes); made in house; host or cells: Escherichia coli BL21 (DE3)
- Sequence (Q9I4E3 1-254 S20C/R40E/R98H/C249S): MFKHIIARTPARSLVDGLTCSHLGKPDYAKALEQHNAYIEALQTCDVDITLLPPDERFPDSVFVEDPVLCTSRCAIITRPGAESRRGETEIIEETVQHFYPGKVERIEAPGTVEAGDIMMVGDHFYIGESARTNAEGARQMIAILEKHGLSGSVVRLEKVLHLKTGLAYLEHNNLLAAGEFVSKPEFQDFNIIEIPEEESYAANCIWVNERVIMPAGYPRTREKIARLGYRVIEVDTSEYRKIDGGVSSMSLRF
- assayOverview: MDCC fluorescence titration, Ser20Cys variant
- Type: binding
- details: static MDCC fluorescence titration, 25 °C, buffer A; fluorescence increased; read-out: equilibrium dissociation constant
readoutLabel: Kd (µM)
State the answer as a number, implicitly in µM.

Query block: Reported Kd, compound NC(=O)NCCC[C@H](N)C(=O)O [L-citrulline] : ____
Result block: 7.2
